Recorded Kd values for a group of compounds are listed next.
target: full length N-terminally FLAG-tagged PARP1 (Homo sapiens, UniProt P09874); assay: PARP1 probe displacement HTRF assay; details: read-out: PARP1 HTRF; binned Kd, PARP1 probe displacement HTRF
Sequence (P09874 whole entry): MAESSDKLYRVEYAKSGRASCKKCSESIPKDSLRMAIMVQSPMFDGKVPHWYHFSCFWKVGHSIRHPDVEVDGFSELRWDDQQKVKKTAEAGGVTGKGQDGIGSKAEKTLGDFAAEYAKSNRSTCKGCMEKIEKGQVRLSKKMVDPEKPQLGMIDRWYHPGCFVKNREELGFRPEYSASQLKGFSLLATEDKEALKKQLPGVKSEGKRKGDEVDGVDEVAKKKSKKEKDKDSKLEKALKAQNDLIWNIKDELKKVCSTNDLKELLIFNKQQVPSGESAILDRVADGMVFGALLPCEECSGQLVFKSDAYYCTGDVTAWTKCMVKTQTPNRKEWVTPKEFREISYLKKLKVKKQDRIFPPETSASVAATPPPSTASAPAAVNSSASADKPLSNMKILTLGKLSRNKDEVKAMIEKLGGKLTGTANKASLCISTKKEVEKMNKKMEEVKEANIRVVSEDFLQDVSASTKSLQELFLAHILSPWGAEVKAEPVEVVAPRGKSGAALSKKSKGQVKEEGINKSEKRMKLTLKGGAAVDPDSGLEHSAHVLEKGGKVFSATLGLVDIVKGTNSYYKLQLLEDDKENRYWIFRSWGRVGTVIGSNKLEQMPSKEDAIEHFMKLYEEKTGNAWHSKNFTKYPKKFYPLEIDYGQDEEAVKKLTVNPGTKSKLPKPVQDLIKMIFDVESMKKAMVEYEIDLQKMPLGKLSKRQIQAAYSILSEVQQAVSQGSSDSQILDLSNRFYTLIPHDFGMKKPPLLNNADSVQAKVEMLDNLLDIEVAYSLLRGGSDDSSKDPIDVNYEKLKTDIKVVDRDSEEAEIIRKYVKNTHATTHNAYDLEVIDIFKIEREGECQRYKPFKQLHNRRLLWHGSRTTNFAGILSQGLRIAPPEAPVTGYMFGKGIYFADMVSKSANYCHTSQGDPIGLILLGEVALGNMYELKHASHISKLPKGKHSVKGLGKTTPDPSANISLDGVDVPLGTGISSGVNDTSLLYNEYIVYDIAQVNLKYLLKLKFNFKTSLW

// below: answered compounds
Compound | Kd
O=c1[nH]c(C2CCN(C3CCN(c4ccc(F)cc4F)CC3)C2)nc2ccccc12 (single isomer, unassigned) [Compound 107b] | 0.1 to 1 µM
O=C(NCC(F)(F)F)c1ccc(N2CCC(N3CCCC(c4nc5ccccc5c(=O)[nH]4)C3)CC2)cn1 (single isomer, unassigned) [Compound 115a] | 0.1 to 1 µM
CNC(=O)c1ccc(N2CCC(N3CCC(c4nc5onc(C(F)(F)F)c5c(=O)[nH]4)C3)CC2)cn1 (racemic) [Compound 176rac] | 0.1 to 1 µM
CNC(=O)c1cc(C)c(N2CCC(N3CCC(c4cc5ccc(F)cc5c(=O)[nH]4)C3)CC2)cn1 (single isomer, unassigned) [Compound 202b] | < 0.01 µM

Prompt: Report Kd for CNC(=O)c1ccc(N2CC(N3CCCC(c4nc5ccccc5c(=O)[nH]4)C3)C2)cn1 (single isomer, unassigned) [Compound 23b] please.
Response: 1 to 10 µM

Prompt: Report Kd for O=c1[nH]c(C2CCN(C3CCN(c4ccc(F)cc4F)CC3)C2)nc2ccccc12 (single isomer, unassigned) [Compound 107a] please.
Response: 0.01 to 0.1 µM

###

target: PARP1 (Homo sapiens, UniProt P09874); assay: NanoBRET cellular target occupancy assay, PARP1; settings: HEK293 cells transiently transfected with PARP1-NanoLuc fusion; tracer 11 nM; 2 hours at 37° C.; Kd by Cheng-Prussoff
pKd: −log10 of the molar value.
Readout label: pKd

// below: answered compounds
Compound | Readout label | Result
O=C(NC1CC1)c1ccc(N2CCC(N3CCC(c4cc5cccc(F)c5c(=O)[nH]4)C3)CC2)cn1 (single isomer, unassigned) [Compound 339a] | pKd | > 8.00
CNC(=O)c1ccc(N2CCC(N3CC4(c5nc6c(c(=O)[nH]5)CCCN6C)CC3C4)CC2)cn1 | pKd | 7.00 to 8.00
CNC(=O)c1ccc(N2CCC(N3CCC(c4cc5c(c(=O)[nH]4)CCCC5)C3)CC2)c(F)n1 (single isomer, unassigned) [Compound 337a] | pKd | > 8.00

Prompt: Report pKd for CNC(=O)c1ccc(N2CCC(N3CCC(c4cc5cccc(F)c5c(=O)[nH]4)C3)CC2)c(Cl)n1 (single isomer, unassigned) [Compound 183b] please.
Response: > 8.00

Prompt: Report pKd for CNC(=O)c1ccc(N2CCC(N3CCC(c4[nH]c(=O)c5ccccc5c4F)C3)CC2)cn1 (racemic) please.
Response: > 8.00

Prompt: Report pKd for CNC(=O)c1ccc(N2CCC(N3CCC(c4cc5ncc(F)cc5c(=O)[nH]4)C3)CC2)cn1 (racemic) please.
Response: > 8.00

###

molecular target: full length N-terminally FLAG-tagged PARP1 (Homo sapiens, UniProt P09874); assay: PARP1 biochemical DELFIA assay (auto-PARylation); design: recombinant full length human N-terminally FLAG-tagged PARP1; details: binned IC50, biochemical auto-PARylation assay
pIC50: −log10 of the molar value.
Readout label: pIC50

Molecule | pIC50
CCc1ccc(C2CCN(C3CCN(c4cnc(C(=O)NC)nc4Cl)CC3)C2)[nH]c1=O (racemic) [Compound 242rac] | > 8.00
CNC(=O)c1ccc(N2CCC(N3CCC(c4cc5cc(O)ccc5c(=O)[nH]4)C3)CC2)cn1 (single isomer, unassigned) [Compound 357b] | 7.00 to 8.00
CC(=O)Nc1ccc(N2CCC(N3CCC(c4cc5ccccc5c(=O)[nH]4)C3)CC2)cc1 (single isomer, unassigned) [Compound 289b] | > 8.00
O=c1[nH]c(C2CCN(C3CCN(c4ccc(OC(F)F)nc4)CC3)C2)cc2ccc(F)cc12 (single isomer, unassigned) [Compound 374b] | > 8.00
CNC(=O)c1ccc(N2CCC(N3CC4(c5nc6ncc(F)cc6c(=O)[nH]5)CC3C4)CC2)c(F)n1 [Compound 369] | > 8.00

Shifting focus to the molecule that follows.
Prompt: Report pIC50 for CCc1ccc(C2CCN(C3CCN(c4ccc(C#N)cc4Cl)CC3)C2)[nH]c1=O (single isomer, unassigned) [Compound 377b] please.
Response: > 8.00

###

target: full length N-terminally FLAG-tagged PARP1 (Homo sapiens, UniProt P09874); experiment: PARP1 probe displacement HTRF assay; conditions: read-out: PARP1 HTRF; binned Kd, PARP1 probe displacement HTRF
pKd: −log10 of the molar value.
Readout label: pKd

Compound | pKd
CNC(=O)c1ccc(N2CCC(N3CCC(c4nc(C)cc(=O)[nH]4)C3)CC2)cn1 (single isomer, unassigned) [Compound 97b] | 6.00 to 7.00

Prompt: Report pKd for CNC(=O)c1ccc(N2CCC(N3CCC(c4nc5sc6c(c5c(=O)[nH]4)CCC6)C3)CC2)cn1 (single isomer, unassigned) [Compound 189a] please.
Response: 7.00 to 8.00

Prompt: Report pKd for CNC(=O)c1ccc(N2CCC(N3CCC(c4cc5cccc(F)c5c(=O)[nH]4)C3)CC2)c(C)n1 (single isomer, unassigned) [Compound 206b] please.
Response: > 8.00

Prompt: Report pKd for CNC(=O)c1ccc(N2CCC(N3CCC(c4nc5c(c(C(F)(F)F)cn5C)c(=O)[nH]4)C3)CC2)cn1 (single isomer, unassigned) [Compound 170b] please.
Response: > 8.00

Prompt: Report pKd for CNC(=O)c1ccc(N2CCC(N3CCCC(c4nc5c(c(C(F)(F)F)nn5C)c(=O)[nH]4)C3)CC2)cn1 (single isomer, unassigned) [Compound 190b] please.
Response: > 8.00

Prompt: Report pKd for CNC(=O)c1ccc(N2CCC(N3CCCC(c4ccc(OC)c(=O)[nH]4)C3)CC2)cn1 (single isomer, unassigned) [Compound 147a] please.
Response: 5.00 to 6.00

Prompt: Report pKd for CNC(=O)c1ccc(N2CCC(N3CCCC(c4ccc(CC(F)(F)F)c(=O)[nH]4)C3)CC2)cn1 (single isomer, unassigned) [Compound 169b] please.
Response: 7.00 to 8.00

###

Recorded Kd values for a group of compounds are listed next.
target: full length N-terminally FLAG-tagged PARP1 (Homo sapiens); test: PARP1 probe displacement HTRF assay; details: read-out: PARP1 HTRF; binned Kd, PARP1 probe displacement HTRF

// below: answered compounds
Compound | Tested target | Kd
CNC(=O)c1ccc(N2CCC(N3CCC(c4nc5ccccc5c(=O)[nH]4)C3)CC2)c(C)n1 (single isomer, unassigned) [Compound 125a] | full length N-terminally FLAG-tagged PARP1 (Homo sapiens) | < 0.01 µM
N#Cc1ccc(N2CCC(N3CCCC(c4nc5ccccc5c(=O)[nH]4)C3)CC2)nc1 (single isomer, unassigned) [Compound 74b] | full length N-terminally FLAG-tagged PARP1 (Homo sapiens) | 0.01 to 0.1 µM
CNC(=O)c1ccc(N2CCC(N3CCC(c4nc5cccc(C(F)(F)F)c5c(=O)[nH]4)C3)CC2)cn1 (single isomer, unassigned) [Compound 86a] | full length N-terminally FLAG-tagged PARP1 (Homo sapiens) | 0.01 to 0.1 µM
CCNC(=O)c1ccc(N2CCC(N3CCC(c4nc5ccccc5c(=O)[nH]4)C3)CC2)cn1 (single isomer, unassigned) [Compound 111a] | full length N-terminally FLAG-tagged PARP1 (Homo sapiens) | 0.01 to 0.1 µM
CCc1cnc(C2CCCN(CC3CCN(c4ccc(C(=O)NC)nc4)CC3)C2)[nH]c1=O (racemic) | full length N-terminally FLAG-tagged PARP1 (Homo sapiens) | 0.1 to 1 µM

Prompt: Report Kd for CNC(=O)c1ccc(N2CCC(N3CCC(c4ccc(CC5CC5)c(=O)[nH]4)C3)CC2)cn1 (single isomer, unassigned) [Compound 213b] please.
Response: < 0.01 µM

Prompt: Report Kd for CNC(=O)c1ccc(N2CCC(N3CCC(c4nc5cccnc5c(=O)[nH]4)C3)CC2)cn1 (single isomer, unassigned) [Compound 77b] please.
Response: 0.01 to 0.1 µM

Prompt: Report Kd for CCc1ccc(C2CCN(C3CCN(c4ccc(C(=O)NC)nc4C)CC3)C2)[nH]c1=O (single isomer, unassigned) [Compound 133b] please.
Response: 0.01 to 0.1 µM

Prompt: Report Kd for NC(=O)c1ccc(N2CCC(N3CCC(c4nc5ccccc5c(=O)[nH]4)C3)CC2)cn1 (single isomer, unassigned) [Compound 123b] please.
Response: < 0.01 µM

Prompt: Report Kd for CCc1nc(C(=O)NC)ccc1N1CCC(N2CCC(c3nc4ccccc4c(=O)[nH]3)C2)CC1 (single isomer, unassigned) [Compound 118b] please.
Response: 0.01 to 0.1 µM

Prompt: Report Kd for CNC(=O)c1ccc(N2CCC(N3CCCC(c4cc5ccccc5c(=O)[nH]4)C3)CC2)cn1 (single isomer, unassigned) [Compound 100a] please.
Response: < 0.01 µM

Prompt: Report Kd for CNC(=O)c1ccc(N2CCC(N3CCC(c4cc5c(C(F)(F)F)cccc5c(=O)[nH]4)C3)CC2)cn1 (single isomer, unassigned) [Compound 167a] please.
Response: 0.01 to 0.1 µM

Prompt: Report Kd for CNC(=O)c1cnc(N2CCC(N3CCCC(c4nc5ccccc5c(=O)[nH]4)C3)CC2)cn1 (single isomer, unassigned) [Compound 99b] please.
Response: 0.1 to 1 µM

Prompt: Report Kd for NC(=O)c1ccc(N2CCC(N3CCC(c4nc5ccccc5c(=O)[nH]4)C3)CC2)cn1 (single isomer, unassigned) [Compound 123a] please.
Response: 0.01 to 0.1 µM
